test system: PXR:RXRa (NR concentration 270 nM, RXRa partner concentration 90 nM); experiment: PBM binding z-score (relative to random genomic background probes); higher = stronger binding; sequences stand for … in GC…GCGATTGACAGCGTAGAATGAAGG
# PBM binding z-score per entry
measured.endpoint: PBM binding z-score

[
  {
    "entry.sequence": "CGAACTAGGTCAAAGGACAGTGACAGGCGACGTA",
    "quantitative.result": 1.3
  },
  {
    "entry.sequence": "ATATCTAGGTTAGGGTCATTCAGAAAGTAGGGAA",
    "quantitative.result": 4.33
  },
  {
    "entry.sequence": "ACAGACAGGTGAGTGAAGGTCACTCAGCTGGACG",
    "quantitative.result": 3.66
  },
  {
    "entry.sequence": "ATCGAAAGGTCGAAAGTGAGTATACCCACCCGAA",
    "quantitative.result": 2.02
  },
  {
    "entry.sequence": "CCGAGTAGGTTACGAGGGGGCATTAAGTGCGAAT",
    "quantitative.result": 4.77
  },
  {
    "entry.sequence": "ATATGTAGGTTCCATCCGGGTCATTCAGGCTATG",
    "quantitative.result": 3.14
  }
]

---

test system: RARg homodimer (NR concentration 270 nM); experiment: PBM binding z-score (relative to random genomic background probes); higher = stronger binding; sequences stand for … in GC…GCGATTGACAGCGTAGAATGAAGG

[
  {
    "entry.sequence": "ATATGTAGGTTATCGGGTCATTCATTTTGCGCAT",
    "experimental.target": "RARg homodimer (NR concentration 270 nM)",
    "PBM binding z-score": 2.49
  },
  {
    "entry.sequence": "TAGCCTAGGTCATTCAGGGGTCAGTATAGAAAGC",
    "experimental.target": "RARg homodimer (NR concentration 270 nM)",
    "PBM binding z-score": 6.28
  },
  {
    "entry.sequence": "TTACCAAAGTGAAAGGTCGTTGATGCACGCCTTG",
    "experimental.target": "RARg homodimer (NR concentration 270 nM)",
    "PBM binding z-score": 1.01
  },
  {
    "entry.sequence": "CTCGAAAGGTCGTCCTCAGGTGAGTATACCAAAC",
    "experimental.target": "RARg homodimer (NR concentration 270 nM)",
    "PBM binding z-score": 4.2
  },
  {
    "entry.sequence": "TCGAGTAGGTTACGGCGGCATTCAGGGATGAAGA",
    "experimental.target": "RARg homodimer (NR concentration 270 nM)",
    "PBM binding z-score": 0.134
  },
  {
    "entry.sequence": "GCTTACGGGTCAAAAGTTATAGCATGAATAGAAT",
    "experimental.target": "RARg homodimer (NR concentration 270 nM)",
    "PBM binding z-score": 3.15
  },
  {
    "entry.sequence": "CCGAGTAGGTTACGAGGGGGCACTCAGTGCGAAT",
    "experimental.target": "RARg homodimer (NR concentration 270 nM)",
    "PBM binding z-score": 2.39
  },
  {
    "entry.sequence": "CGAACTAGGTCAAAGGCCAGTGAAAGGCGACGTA",
    "experimental.target": "RARg homodimer (NR concentration 270 nM)",
    "PBM binding z-score": 4.81
  },
  {
    "entry.sequence": "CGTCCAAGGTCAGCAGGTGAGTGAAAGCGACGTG",
    "experimental.target": "RARg homodimer (NR concentration 270 nM)",
    "PBM binding z-score": 6.27
  },
  {
    "entry.sequence": "ATTTGTAGGTTATCGGGTCATTCAGTTTGCGCAT",
    "experimental.target": "RARg homodimer (NR concentration 270 nM)",
    "PBM binding z-score": 3.01
  },
  {
    "entry.sequence": "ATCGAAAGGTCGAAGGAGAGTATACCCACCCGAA",
    "experimental.target": "RARg homodimer (NR concentration 270 nM)",
    "PBM binding z-score": 3.81
  },
  {
    "entry.sequence": "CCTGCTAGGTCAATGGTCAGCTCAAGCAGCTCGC",
    "experimental.target": "RARg homodimer (NR concentration 270 nM)",
    "PBM binding z-score": 4.32
  },
  {
    "entry.sequence": "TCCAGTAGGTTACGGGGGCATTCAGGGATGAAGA",
    "experimental.target": "RARg homodimer (NR concentration 270 nM)",
    "PBM binding z-score": 3.38
  },
  {
    "entry.sequence": "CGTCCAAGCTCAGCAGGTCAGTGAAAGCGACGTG",
    "experimental.target": "RARg homodimer (NR concentration 270 nM)",
    "PBM binding z-score": 1.1
  },
  {
    "entry.sequence": "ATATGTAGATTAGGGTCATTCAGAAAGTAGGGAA",
    "experimental.target": "RARg homodimer (NR concentration 270 nM)",
    "PBM binding z-score": 2.29
  },
  {
    "entry.sequence": "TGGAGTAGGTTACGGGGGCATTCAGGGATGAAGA",
    "experimental.target": "RARg homodimer (NR concentration 270 nM)",
    "PBM binding z-score": 3.39
  },
  {
    "entry.sequence": "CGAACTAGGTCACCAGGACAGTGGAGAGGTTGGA",
    "experimental.target": "RARg homodimer (NR concentration 270 nM)",
    "PBM binding z-score": 5.51
  },
  {
    "entry.sequence": "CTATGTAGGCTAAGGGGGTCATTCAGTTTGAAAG",
    "experimental.target": "RARg homodimer (NR concentration 270 nM)",
    "PBM binding z-score": 2.53
  },
  {
    "entry.sequence": "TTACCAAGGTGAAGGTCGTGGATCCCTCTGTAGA",
    "experimental.target": "RARg homodimer (NR concentration 270 nM)",
    "PBM binding z-score": 1.49
  },
  {
    "entry.sequence": "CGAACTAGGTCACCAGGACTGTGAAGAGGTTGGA",
    "experimental.target": "RARg homodimer (NR concentration 270 nM)",
    "PBM binding z-score": 5.16
  },
  {
    "entry.sequence": "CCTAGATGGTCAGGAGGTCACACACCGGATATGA",
    "experimental.target": "RARg homodimer (NR concentration 270 nM)",
    "PBM binding z-score": 4.28
  },
  {
    "entry.sequence": "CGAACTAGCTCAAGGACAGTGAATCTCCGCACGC",
    "experimental.target": "RARg homodimer (NR concentration 270 nM)",
    "PBM binding z-score": -0.141
  },
  {
    "entry.sequence": "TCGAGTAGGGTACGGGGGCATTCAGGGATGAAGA",
    "experimental.target": "RARg homodimer (NR concentration 270 nM)",
    "PBM binding z-score": 1.97
  },
  {
    "entry.sequence": "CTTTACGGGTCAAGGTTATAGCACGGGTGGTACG",
    "experimental.target": "RARg homodimer (NR concentration 270 nM)",
    "PBM binding z-score": 5.01
  },
  {
    "entry.sequence": "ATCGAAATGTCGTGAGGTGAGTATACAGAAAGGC",
    "experimental.target": "RARg homodimer (NR concentration 270 nM)",
    "PBM binding z-score": 0.683
  },
  {
    "entry.sequence": "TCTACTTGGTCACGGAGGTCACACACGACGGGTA",
    "experimental.target": "RARg homodimer (NR concentration 270 nM)",
    "PBM binding z-score": 5.47
  },
  {
    "entry.sequence": "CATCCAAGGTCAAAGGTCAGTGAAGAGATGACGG",
    "experimental.target": "RARg homodimer (NR concentration 270 nM)",
    "PBM binding z-score": 7.95
  },
  {
    "entry.sequence": "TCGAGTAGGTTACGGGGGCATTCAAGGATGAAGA",
    "experimental.target": "RARg homodimer (NR concentration 270 nM)",
    "PBM binding z-score": 2.33
  },
  {
    "entry.sequence": "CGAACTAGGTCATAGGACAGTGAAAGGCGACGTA",
    "experimental.target": "RARg homodimer (NR concentration 270 nM)",
    "PBM binding z-score": 3.88
  },
  {
    "entry.sequence": "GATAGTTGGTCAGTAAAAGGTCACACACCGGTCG",
    "experimental.target": "RARg homodimer (NR concentration 270 nM)",
    "PBM binding z-score": 4.96
  },
  {
    "entry.sequence": "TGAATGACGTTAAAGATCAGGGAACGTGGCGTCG",
    "experimental.target": "RARg homodimer (NR concentration 270 nM)",
    "PBM binding z-score": 0.113
  },
  {
    "entry.sequence": "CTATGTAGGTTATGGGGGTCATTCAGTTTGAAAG",
    "experimental.target": "RARg homodimer (NR concentration 270 nM)",
    "PBM binding z-score": 4.08
  },
  {
    "entry.sequence": "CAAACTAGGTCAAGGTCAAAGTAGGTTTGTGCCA",
    "experimental.target": "RARg homodimer (NR concentration 270 nM)",
    "PBM binding z-score": 6.86
  },
  {
    "entry.sequence": "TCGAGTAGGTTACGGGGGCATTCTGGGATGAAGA",
    "experimental.target": "RARg homodimer (NR concentration 270 nM)",
    "PBM binding z-score": 2.19
  },
  {
    "entry.sequence": "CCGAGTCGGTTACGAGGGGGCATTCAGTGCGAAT",
    "experimental.target": "RARg homodimer (NR concentration 270 nM)",
    "PBM binding z-score": 1.41
  },
  {
    "entry.sequence": "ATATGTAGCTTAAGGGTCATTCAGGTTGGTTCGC",
    "experimental.target": "RARg homodimer (NR concentration 270 nM)",
    "PBM binding z-score": 2.82
  },
  {
    "entry.sequence": "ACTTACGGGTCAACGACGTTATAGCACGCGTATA",
    "experimental.target": "RARg homodimer (NR concentration 270 nM)",
    "PBM binding z-score": 4.51
  },
  {
    "entry.sequence": "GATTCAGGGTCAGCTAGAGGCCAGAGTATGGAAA",
    "experimental.target": "RARg homodimer (NR concentration 270 nM)",
    "PBM binding z-score": 5.09
  },
  {
    "entry.sequence": "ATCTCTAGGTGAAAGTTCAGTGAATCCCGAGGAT",
    "experimental.target": "RARg homodimer (NR concentration 270 nM)",
    "PBM binding z-score": 2.27
  },
  {
    "entry.sequence": "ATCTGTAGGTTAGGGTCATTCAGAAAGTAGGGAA",
    "experimental.target": "RARg homodimer (NR concentration 270 nM)",
    "PBM binding z-score": 3.96
  },
  {
    "entry.sequence": "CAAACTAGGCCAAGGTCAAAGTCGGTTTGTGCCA",
    "experimental.target": "RARg homodimer (NR concentration 270 nM)",
    "PBM binding z-score": 4.17
  },
  {
    "entry.sequence": "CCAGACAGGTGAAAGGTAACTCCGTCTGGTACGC",
    "experimental.target": "RARg homodimer (NR concentration 270 nM)",
    "PBM binding z-score": 0.537
  },
  {
    "entry.sequence": "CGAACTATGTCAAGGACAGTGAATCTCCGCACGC",
    "experimental.target": "RARg homodimer (NR concentration 270 nM)",
    "PBM binding z-score": 0.808
  },
  {
    "entry.sequence": "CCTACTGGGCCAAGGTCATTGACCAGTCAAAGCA",
    "experimental.target": "RARg homodimer (NR concentration 270 nM)",
    "PBM binding z-score": 3.66
  },
  {
    "entry.sequence": "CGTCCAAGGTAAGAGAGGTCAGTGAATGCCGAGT",
    "experimental.target": "RARg homodimer (NR concentration 270 nM)",
    "PBM binding z-score": 3.04
  },
  {
    "entry.sequence": "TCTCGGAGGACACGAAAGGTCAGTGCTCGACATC",
    "experimental.target": "RARg homodimer (NR concentration 270 nM)",
    "PBM binding z-score": 5.21
  },
  {
    "entry.sequence": "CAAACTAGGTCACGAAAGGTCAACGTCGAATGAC",
    "experimental.target": "RARg homodimer (NR concentration 270 nM)",
    "PBM binding z-score": 8.96
  },
  {
    "entry.sequence": "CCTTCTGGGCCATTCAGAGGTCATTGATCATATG",
    "experimental.target": "RARg homodimer (NR concentration 270 nM)",
    "PBM binding z-score": 3.3
  },
  {
    "entry.sequence": "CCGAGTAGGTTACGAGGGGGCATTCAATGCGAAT",
    "experimental.target": "RARg homodimer (NR concentration 270 nM)",
    "PBM binding z-score": 2.47
  },
  {
    "entry.sequence": "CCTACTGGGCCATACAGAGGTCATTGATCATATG",
    "experimental.target": "RARg homodimer (NR concentration 270 nM)",
    "PBM binding z-score": 3.22
  },
  {
    "entry.sequence": "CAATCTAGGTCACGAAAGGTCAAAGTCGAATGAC",
    "experimental.target": "RARg homodimer (NR concentration 270 nM)",
    "PBM binding z-score": 8.64
  }
]
